- Target Or System: T1, CLR-RAMP1 heterodimer with the L24A CLR mutant, Q16602
- T1 chain 1: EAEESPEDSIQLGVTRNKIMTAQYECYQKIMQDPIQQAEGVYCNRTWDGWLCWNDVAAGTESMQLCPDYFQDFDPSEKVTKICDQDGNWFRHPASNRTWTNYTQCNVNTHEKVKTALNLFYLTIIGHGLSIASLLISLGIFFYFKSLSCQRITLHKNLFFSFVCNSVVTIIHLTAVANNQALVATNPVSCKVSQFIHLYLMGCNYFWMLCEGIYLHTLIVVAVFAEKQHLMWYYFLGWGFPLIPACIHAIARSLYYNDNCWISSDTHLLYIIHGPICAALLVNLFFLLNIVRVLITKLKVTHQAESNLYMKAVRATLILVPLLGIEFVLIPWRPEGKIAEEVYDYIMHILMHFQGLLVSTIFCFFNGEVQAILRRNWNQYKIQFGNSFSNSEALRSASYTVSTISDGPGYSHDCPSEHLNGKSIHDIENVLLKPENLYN
- T1 chain 2: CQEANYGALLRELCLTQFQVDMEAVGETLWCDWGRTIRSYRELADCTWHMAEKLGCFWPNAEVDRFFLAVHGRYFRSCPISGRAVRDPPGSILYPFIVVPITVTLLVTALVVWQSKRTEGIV
- Assay Comment: radioligand binding; competition: increasing unlabeled peptide against specific [125I-Tyr]CGRP(8–37) binding on crude membranes of transiently transfected HEK293T-RAMP1 cells, same buffer as the saturation binding; Ki from IC50 by the method of Cheng and Prusoff
pKi: −log10 of the molar value.
Metric Name: pKi

Quickly give me recorded pKi for ACDTATCVTHRLAGLLSRS (modifications not checked) [CGRP(1–19)]
< 5.00
